Read-out: Apoptosis regulator Bcl-2 (Homo sapiens)
Assay: LTEA_HepaRG_BCL2: Life Technologies and Expression Analysis (LTEA) Assay for Bcl-2 gene using HepaRG (AID 2283475);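 also: BCL2 transcript by TaqMan qRT-PCR normalised to ACTB GAPDH and POLR2A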
Settings: mRNA level, 48 h; actives raise or lower the signal
Active and inactive are the calls of the source. The calls were made as follows: active = hit-call score of the fitted dose curve at least 0.9, where 1 is the maximum; inactive = score below 0.9.
API: response.call in yes (1) = active, no (0) = inactive

               chem_smiles  assigned_label
0  O=[N+]([O-])c1ccc(O)cc1          no (0)

stdin: Dear all, I need the recorded test outcome for CCCOc1sc(C(=O)N2CCC(c3cc(CN)ccc3F)CC2)c(C)c1Br , thank you.
stdout: no (0)

stdin: Please let me know the test result on file for CC(C)(C)CC(C)(C)c1ccc(O)c(-n2nc3ccccc3n2)c1 .
stdout: no (0)

stdin: Recorded test call requested for Cc1cc(CCN2CCN(c3nsc4ccccc34)CC2)cc2c1NC(=O)CC2(C)C
stdout: yes (1)
